Values from ChEMBL document CHEMBL1151423

system: Mus musculus; assay: Apparent peripheral volume of distribution in mouse at 10 to 100 mg/kg, ip; type: ADME, organism-based; design: dose 10-100 mg/kg, route intraperitoneal; details: in vivo
EXPERIMENTAL_ENDPOINT: Vp/F (L/kg)

>>> quantitative_result("COc1c(N2CCNC(C)C2)c(F)cc2c(=O)c(C(=O)O)cn(C3CC3)c12 (stereo unspecified)")
1.6

---

experiment: Half life in human; type: ADME, organism-based; conditions: in vivo
EXPERIMENTAL_ENDPOINT: half-life

>>> result("COc1c(N2CCNC(C)C2)c(F)cc2c(=O)c(C(=O)O)cn(C3CC3)c12 (stereo unspecified)")
"9 h"
